# credit: ChEMBL document CHEMBL1149822

System: Rattus norvegicus
Test: Antiinflammatory activity against carrageenan-induced paw oedema in albino rat at 50 mg/kg, po relative to control
Assay type: functional
MEASURED PROPERTY: inhibition in vivo at 50 mg/kg (%)
The reply should contain only the number, in %.

// query Read the entry `COc1ccc(C2=Nn3c(nnc3-c3cc(Cl)cc(Cl)c3Cl)SC2)cc1` and write its reported inhibition in vivo at 50 mg/kg.
// result 19.4

// query Tell us which inhibition in vivo at 50 mg/kg value is on record for `Clc1ccc(C2=Nn3c(nnc3-c3cc(Cl)cc(Cl)c3Cl)SC2)cc1`
// result 30.6

// query Output measured inhibition in vivo at 50 mg/kg for this item: `Clc1cc(Cl)c(Cl)c(-c2nnc3sc(-c4ccncc4)nn23)c1`
// result 11.3

More entries:
// query Fill in reported inhibition in vivo at 50 mg/kg for this entry: `Clc1cc(Cl)c(Cl)c(-c2nnc3sc(-c4ccccc4)nn23)c1`
// result 16.1

// query Give the reported value of inhibition in vivo at 50 mg/kg for this record: `Clc1cc(Cl)c(Cl)c(-c2nnc3sc(-c4cccc5cnccc45)nn23)c1`
// result 22.6

###

MIC listing for selected compounds.
Tested on: Pseudomonas aeruginosa
Assay: Antibacterial activity against Pseudomonas aeruginosa ATTC 27853 after 16 to 18 hrs by serial plate dilution method
Format: functional
Details: ATCC27853
Just the number in µg/mL, nothing appended.

A selection of reference data follows.
// query Tell me its MIC on Pseudomonas aeruginosa: `Clc1cc(Cl)c(Cl)c(-c2nnc3sc(-c4cccc5ncccc45)nn23)c1`
// result 12

// query Supply MIC measured with Pseudomonas aeruginosa for `Clc1cc(Cl)cc(-c2nn3c(-c4cc(Cl)cc(Cl)c4Cl)nnc3s2)c1` .
// result 6.25

More entries:
// query Answer with MIC of `Clc1ccc(C2=Nn3c(nnc3-c3cc(Cl)cc(Cl)c3Cl)SC2)cc1` measured for Pseudomonas aeruginosa.
// result 6.25

// query // output MIC; input `NC(=O)c1cc(C2=Nn3c(nnc3-c3cc(Cl)cc(Cl)c3Cl)SC2)ccc1O` ; system Pseudomonas aeruginosa
// result 6.25

// query Please report the measured MIC for `Cc1ccc(-c2nn3c(-c4cc(Cl)cc(Cl)c4Cl)nnc3s2)cc1` tested on Pseudomonas aeruginosa.
// result 6.25

// query Tell me MIC of `CSc1ccc(C2=Nn3c(nnc3-c3cc(Cl)cc(Cl)c3Cl)SC2)cc1` when tested on Pseudomonas aeruginosa.
// result 6.25

###

Tested on: Pseudomonas aeruginosa
Experiment: Antibacterial activity against Pseudomonas aeruginosa ATTC 27853 after 16 to 18 hrs by serial plate dilution method
Assay type: functional
Conditions: ATCC27853
MEASURED PROPERTY: MIC (µg/mL)
Respond numerically; units are µg/mL and should not be typed.

Example cases with answers are listed next.
// query Identify MIC associated with the compound `Clc1cc(Cl)c(Cl)c(-c2nnc3sc(-c4ccncc4)nn23)c1`
// result 6.25

// query Recall and state the measured MIC for `Clc1cc(Cl)c(Cl)c(-c2nnc3sc(-c4ccccc4)nn23)c1` .
// result 6.25

// query Look up and state reported MIC for `Cc1cc(C)cc(-c2nn3c(-c4cc(Cl)cc(Cl)c4Cl)nnc3s2)c1`
// result 6.25

// query Item `Cc1ccc(C2=Nn3c(nnc3-c3cc(Cl)cc(Cl)c3Cl)SC2)cc1` : provide MIC
// result 12

// query Return MIC (reported value) for this compound: `COc1ccc(C2=Nn3c(nnc3-c3cc(Cl)cc(Cl)c3Cl)SC2)cc1`
// result 6.25

New cases:
// query Using known records, supply MIC for `Clc1cc(Cl)c(Cl)c(-c2nnc3sc(-c4cccc5cnccc45)nn23)c1`
// result 25

###

The entries below come with measured MIC values attached.
Tested on: Pseudomonas aeruginosa
Assay: Antibacterial activity against Pseudomonas aeruginosa ATTC 27853 after 16 to 18 hrs by serial plate dilution method
Assay type: functional
Conditions: ATCC27853
Your answer should be a plain number; it is taken to be in µg/mL.

Answered examples (3):
// query Entry `Clc1cc(Cl)c(Cl)c(-c2nnc3n2N=C(c2ccccc2)CS3)c1` needs its MIC filled in; supply it.
// result 6.25

// query Please list MIC recorded for the compound `COc1ccc(-c2nn3c(-c4cc(Cl)cc(Cl)c4Cl)nnc3s2)cc1`
// result 6.25

// query Tell me its MIC given `Clc1cc(Cl)c(Cl)c(-c2nnc3sc(COc4ccccc4)nn23)c1` as the entry.
// result 6.25

New cases:
// query Check the records and state MIC for `Clc1cc(Cl)c(Cl)c(-c2nnc3sc(-c4ccncc4Br)nn23)c1`
// result 6.25
